Exercise: state measured protein stability index for each of the variants provided.
B1: ZNF263 (parent)
chain: KPYKCTLCGENFSHRSNLIRHQRI

# Variants of: B1
# Experimental protocol: protein stability index of a GFP-peptide fusion (GPS, HEK-293T) (PSI 1-6); higher = more stable;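 note: lentivirally expressed fusions sorted by FACS into six bins by GFP to DsRed ratio, PSI derived from sequencing read proportions per bin multiplied by bin number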
# Conditions: c terminus: a fixed tail appended
One number for each entry.

> print(dat)
                    sequence.chain       attribute.measured  measurement
1  KPYKCTLCGENFSHRSNLTRHQRI [I19T]  protein stability index          2.5

Each variant below has a recorded value; state its protein stability index.
1. KPYKCTLCGENFSHRSNLFRHQRI [I19F]
2. KPYKCTLCGENFSHRDNLIRHQRI [S16D]
3. CPYKCTLCGENFSHRSNLIRHQRI [K1C]
4. KPYKCTLRGENFSHRSNLIRHQRI [C8R]
5. KPYKCTLCGENFSHRSNLIRHQRR [I24R]
6. KPYKCSLCGENFSHRSNLIRHQRI [T6S]

A.
1: 1.88; 2: 2.74; 3: 2.67; 4: 1.73; 5: 3.16; 6: 3.17

Reference for the values: the supplement of paper PMC10567573
